Hi there, I'd appreciate the recorded OD 405 nm for every entry that follows.
Molecular target: preformed immune complex of peroxidase-rabbit anti-peroxidase IgG (PAP complex) (rabbit; horseradish) (UniProt P00433)
Sequence (P00433 31-338, one chain of several): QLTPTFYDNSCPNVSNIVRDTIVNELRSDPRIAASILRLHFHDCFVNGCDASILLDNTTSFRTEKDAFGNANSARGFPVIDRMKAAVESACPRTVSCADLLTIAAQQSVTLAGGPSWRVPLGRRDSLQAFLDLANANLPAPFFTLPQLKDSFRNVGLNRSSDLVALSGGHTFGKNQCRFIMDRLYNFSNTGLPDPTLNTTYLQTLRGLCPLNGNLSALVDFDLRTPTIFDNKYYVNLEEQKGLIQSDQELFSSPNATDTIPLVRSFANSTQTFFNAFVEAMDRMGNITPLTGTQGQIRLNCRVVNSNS
Test: reverse ELISA competition: PAP pre-incubated with peptide, then on FcγIIb-coated plate (competitor: immobilized FcγIIb)
No end group written: not given here.
Numbers only, in OD 405 nm.

The following binders have reported results that may help.
binder="APPCAFHLGELVWCT (not fully specified; cysteine pairing not given here) [… (SEQ ID NO:15)]" assay_value=0.38
binder="DCAFHLGELVWCT [… (SEQ ID NO:3)]" assay_value=0.51
binder="APPCARHLGELVWCT (not fully specified; cysteine pairing not given here) [… (SEQ ID NO:14)]" assay_value=0.768

For every item in the list below, what is its measured OD 405 nm?
1. APPDCAWHLGELVWCT [… (SEQ ID NO:16)]
2. APPCAWHLGELVWCT (not fully specified; cysteine pairing not given here) [… (SEQ ID NO:13)]

A.
0.496
0.562
